# Experiment Summary: Half life in Sprague-Dawley rat at 1 mg/kg,iv measured upto 24 hrs by UPLC-MS/MS analysis
# Assay type: ADME, organism-based
# Test Settings: in vivo
Readout Name: half-life

{"Structure": "COC(=O)N[C@H](C(=O)N[C@@H](Cc1ccccc1)[C@@H](O)CN(Cc1ccc(-c2ccccn2)cc1)NC(=O)[C@@H](NC(=O)OC)C(C)(C)C)C(C)(C)C", "Reported Measurement": "7 h"}

====

# Experiment Summary: Cmax in Sprague-Dawley rat at 25 ml/kg,po measured upto 24 hrs by UPLC-MS/MS analysis
# Format: ADME
# Parameters: time < 24 hrs, dose 25 ml/kg, route po
# Test Settings: in vivo
Readout Name: Cmax (nM)

{"Compound": "COC(=O)N[C@H](C(=O)N[C@@H](Cc1ccccc1)[C@H](CN(Cc1ccc(-c2ccccn2)cc1)NC(=O)[C@@H](NC(=O)OC)C(C)(C)C)OC(=O)OC(OC(=O)[C@H](N)C(C)C)C(C)C)C(C)(C)C (stereo in doubt; 5j)", "Reported Measurement": 123}

====

# Experiment Summary: Aqueous solubility of compound at pH 1 by UPLC analysis
# Assay type: physicochemical
# Test Settings: aqueous medium, read-out: solubility
A collection of compounds and their measured solubility

{"Compound": "COC(=O)N[C@H](C(=O)N[C@@H](Cc1ccccc1)[C@H](CN(Cc1ccc(-c2ccccn2)cc1)NC(=O)[C@@H](NC(=O)OC)C(C)(C)C)OC(=O)OC(OC(=O)C1(N)CC1)C(C)C)C(C)(C)C (stereo in doubt; 3x)", "solubility": "> 1200 µg/mL"}
{"Compound": "COC(=O)N[C@H](C(=O)N[C@@H](Cc1ccccc1)[C@H](CN(Cc1ccc(-c2ccccn2)cc1)NC(=O)[C@@H](NC(=O)OC)C(C)(C)C)OC(=O)OC(OC(=O)[C@@H](NC(=O)[C@@H](N)C(C)C)C(C)C)C(C)C)C(C)(C)C (stereo in doubt; 6e)", "solubility": "> 1600 µg/mL"}
{"Compound": "COC(=O)N[C@H](C(=O)N[C@@H](Cc1ccccc1)[C@H](CN(Cc1ccc(-c2ccccn2)cc1)NC(=O)[C@@H](NC(=O)OC)C(C)(C)C)OC(=O)OC(OC(=O)[C@@H](N)C(C)C)C(C)(C)C)C(C)(C)C (mixture of isomers)", "solubility": "> 800 µg/mL"}
{"Compound": "COC(=O)N[C@H](C(=O)N[C@@H](Cc1ccccc1)[C@H](CN(Cc1ccc(-c2ccccn2)cc1)NC(=O)[C@@H](NC(=O)OC)C(C)(C)C)OC(=O)OC(OC(=O)[C@@H](N)Cc1ccccc1)C(C)C)C(C)(C)C (stereo in doubt; 3v)", "solubility": "> 1520 µg/mL"}

====

# Experiment Summary: Metabolic stability in human liver microsomes assessed as half life in presence of NADPH
# Assay type: ADME, Microsome

{"Compound": "COC(=O)N[C@H](C(=O)N[C@@H](Cc1ccccc1)[C@H](CN(Cc1ccc(-c2ccccn2)cc1)NC(=O)[C@@H](NC(=O)OC)C(C)(C)C)OC(=O)OC(OC(=O)[C@@H](N)C(C)C)C(C)C)C(C)(C)C (stereo in doubt; 3s)", "Unit": "h", "half-life": 1.18}

====

# Experiment Summary: Aqueous solubility of compound at pH 1 by UPLC analysis
# Type: physicochemical
# Test Settings: aqueous medium, read-out: solubility
Readout Name: solubility

{"Compound": "COC(=O)N[C@H](C(=O)N[C@@H](Cc1ccccc1)[C@H](CN(Cc1ccc(-c2ccccn2)cc1)NC(=O)[C@@H](NC(=O)OC)C(C)(C)C)OC(=O)OC(OC(=O)[C@@H](N)C(C)C)C(C)C)C(C)(C)C (stereo in doubt; 3r)", "Reported Measurement": "> 2600 µg/mL"}
{"Compound": "CN[C@H](C(=O)OC(OC(=O)O[C@@H](CN(Cc1ccc(-c2ccccn2)cc1)NC(=O)[C@@H](NC(=O)OC)C(C)(C)C)[C@H](Cc1ccccc1)NC(=O)[C@@H](NC(=O)OC)C(C)(C)C)C(C)C)C(C)C (stereo in doubt; 5e)", "Reported Measurement": "> 2500 µg/mL"}
{"Compound": "COC(=O)N[C@H](C(=O)N[C@@H](Cc1ccccc1)[C@H](CN(Cc1ccc(-c2ccccn2)cc1)NC(=O)[C@@H](NC(=O)OC)C(C)(C)C)OC(=O)OC(OC(=O)[C@H](C)N)C(C)C)C(C)(C)C (stereo in doubt; 3p)", "Reported Measurement": "> 1600 µg/mL"}
{"Compound": "COC(=O)N[C@H](C(=O)N[C@@H](Cc1ccccc1)[C@H](CN(Cc1ccc(-c2ccccn2)cc1)NC(=O)[C@@H](NC(=O)OC)C(C)(C)C)OC(=O)OC(OC(=O)CCN)C(C)C)C(C)(C)C (stereo in doubt; 3z)", "Reported Measurement": "> 1700 µg/mL"}
{"Compound": "COC(=O)N[C@H](C(=O)N[C@@H](Cc1ccccc1)[C@H](CN(Cc1ccc(-c2ccccn2)cc1)NC(=O)[C@@H](NC(=O)OC)C(C)(C)C)OC(=O)OC(OC(=O)[C@H](N)C(C)C)C(C)C)C(C)(C)C (stereo in doubt; 5i)", "Reported Measurement": "> 1300 µg/mL"}
{"Compound": "CCC(C)C(OC(=O)O[C@@H](CN(Cc1ccc(-c2ccccn2)cc1)NC(=O)[C@@H](NC(=O)OC)C(C)(C)C)[C@H](Cc1ccccc1)NC(=O)[C@@H](NC(=O)OC)C(C)(C)C)OC(=O)[C@@H](N)C(C)C (mixture of isomers)", "Reported Measurement": "> 2100 µg/mL"}
{"Compound": "COC(=O)N[C@H](C(=O)N[C@@H](Cc1ccccc1)[C@H](CN(Cc1ccc(-c2ccccn2)cc1)NC(=O)[C@@H](NC(=O)OC)C(C)(C)C)OC(=O)OC(OC(=O)[C@@H](N)C(C)C)C1CCCCC1)C(C)(C)C (stereo in doubt; 4n)", "Reported Measurement": "> 1300 µg/mL"}
{"Compound": "COC(=O)N[C@H](C(=O)N[C@@H](Cc1ccccc1)[C@H](CN(Cc1ccc(-c2ccccn2)cc1)NC(=O)[C@@H](NC(=O)OC)C(C)(C)C)OC(=O)OC(OC(=O)[C@@H](N)CC(C)C)C(C)C)C(C)(C)C (stereo in doubt; 3t)", "Reported Measurement": "> 1400 µg/mL"}
{"Compound": "COC(=O)N[C@H](C(=O)N[C@@H](Cc1ccccc1)[C@H](CN(Cc1ccc(-c2ccccn2)cc1)NC(=O)[C@@H](NC(=O)OC)C(C)(C)C)OC(=O)OC(OC(=O)[C@@H](NC(=O)[C@H](N)C(C)C)C(C)C)C(C)C)C(C)(C)C (stereo in doubt; 6g)", "Reported Measurement": "> 2200 µg/mL"}

====

# Experiment Summary: Metabolic stability in monkey intestine microsomes assessed as half life
# Assay type: ADME, Macaca mulatta, Microsome
# Test Settings: rhesus monkey

{"Compound": "COC(=O)N[C@H](C(=O)N[C@@H](Cc1ccccc1)[C@H](CN(Cc1ccc(-c2ccccn2)cc1)NC(=O)[C@@H](NC(=O)OC)C(C)(C)C)OC(=O)OC(OC(=O)[C@@H](N)C(C)C)C(C)C)C(C)(C)C (stereo in doubt; 3s)", "half-life": "> 2 h"}

====

# Experiment Summary: Tmax in Sprague-Dawley rat at 3 ml/kg,po measured upto 24 hrs by UPLC-MS/MS analysis
# Type: ADME
# Test Settings: Sprague-Dawley, in vivo, read-out: Tmax
A collection of molecules and their measured Tmax

{"Molecule": "COC(=O)N[C@H](C(=O)N[C@@H](Cc1ccccc1)[C@H](CN(Cc1ccc(-c2ccccn2)cc1)NC(=O)[C@@H](NC(=O)OC)C(C)(C)C)OC(=O)OC(OC(=O)[C@H](C)N)C(C)C)C(C)(C)C (stereo in doubt; 3p)", "Tmax / min": 24}
{"Molecule": "COC(=O)N[C@H](C(=O)N[C@@H](Cc1ccccc1)[C@H](CN(Cc1ccc(-c2ccccn2)cc1)NC(=O)[C@@H](NC(=O)OC)C(C)(C)C)OC(=O)OC(OC(=O)[C@@H](N)CC(C)C)C(C)C)C(C)(C)C (stereo in doubt; 3u)", "Tmax / min": 18}
{"Molecule": "COC(=O)N[C@H](C(=O)N[C@@H](Cc1ccccc1)[C@H](CN(Cc1ccc(-c2ccccn2)cc1)NC(=O)[C@@H](NC(=O)OC)C(C)(C)C)OC(=O)OC(OC(=O)[C@@H](N)Cc1ccccc1)C(C)C)C(C)(C)C (stereo in doubt; 3w)", "Tmax / min": 18}
{"Molecule": "COC(=O)N[C@H](C(=O)N[C@@H](Cc1ccccc1)[C@H](CN(Cc1ccc(-c2ccccn2)cc1)NC(=O)[C@@H](NC(=O)OC)C(C)(C)C)OC(=O)OC(OC(=O)[C@@H](NC(=O)[C@@H](N)C(C)C)C(C)C)C(C)C)C(C)(C)C (stereo in doubt; 6e)", "Tmax / min": 18}
{"Molecule": "COC(=O)N[C@H](C(=O)N[C@@H](Cc1ccccc1)[C@H](CN(Cc1ccc(-c2ccccn2)cc1)NC(=O)[C@@H](NC(=O)OC)C(C)(C)C)OC(=O)OC(OC(=O)[C@@H](N)C(C)C)C(C)C)C(C)(C)C (stereo in doubt; 3s)", "Tmax / min": 36}
{"Molecule": "COC(=O)N[C@H](C(=O)N[C@@H](Cc1ccccc1)[C@H](CN(Cc1ccc(-c2ccccn2)cc1)NC(=O)[C@@H](NC(=O)OC)C(C)(C)C)OC(=O)OC(OC(=O)[C@@H](N)C(C)C)C1CCCCC1)C(C)(C)C (stereo in doubt; 4n)", "Tmax / min": 30}
